system: HOP-62; test: NCI tumour cell line growth inhibition, 48 h
Activity calls are given as the source filed them. Cut-off read from the data, not from the text of the source: active = GI50 up to about 1.1 µM and inactive = higher.
Possible outcomes: YES for active, NO for inactive

{"COMPOUND": "COc1cc(C2c3cc4c(cc3OC(C)(N3CCCC3)C2C)OCO4)cc(OC)c1OC (stereo unspecified)", "DISCRETE LABEL": "YES"}
{"COMPOUND": "O=c1oc2ccccc2c(O)c1C(C/C(CCN1CCCC1)=N/O)c1ccccc1 (stereo unspecified)", "DISCRETE LABEL": "NO"}
{"COMPOUND": "OC1=CN=C(C2CC2)Oc2ccccc21", "DISCRETE LABEL": "NO"}
{"COMPOUND": "CN(C)c1c(Cl)c(=O)oc2c1ccc1nc(-c3ccccc3)sc12", "DISCRETE LABEL": "NO"}
{"COMPOUND": "O=C(Nc1ccc(Cl)cc1Cl)C1C(=O)N(c2ccc(Cl)cc2Cl)C(=O)/C1=N\\Nc1ccc([N+](=O)[O-])cc1[N+](=O)[O-] (stereo unspecified)", "DISCRETE LABEL": "NO"}
{"COMPOUND": "CC(C)CCCC(C)[C@H]1CC[C@H]2NCCCC[C@]12C (stereo partly specified)", "DISCRETE LABEL": "NO"}
{"COMPOUND": "O=C(O)c1nn[nH]c1Cl", "DISCRETE LABEL": "NO"}
{"COMPOUND": "Nc1ccccc1C(=O)CCC1C(=O)NC(=S)NC1=O", "DISCRETE LABEL": "NO"}
{"COMPOUND": "Cc1cc(=O)oc2c(CNC(CO)C(=O)O)c(O)ccc12 (stereo unspecified)", "DISCRETE LABEL": "NO"}
{"COMPOUND": "COc1cc(CNc2ccc(C(C)C)cc2)cc(OC)c1OC", "DISCRETE LABEL": "NO"}
{"COMPOUND": "COC(=O)[C@]12CC=C3O[C@@H]4OC5(CCCCC5)O[C@@H]4[C@H]3C1C(=O)C=CC2=O (stereo partly specified)", "DISCRETE LABEL": "NO"}
